experiment: Pharmacokinetics of baricitinib in mouse plasma and brain after single SC dose (LC-MS/MS); type: in vivo, SCID mice; settings: mouse, brain (posterior fossa: cerebellum and brainstem); 10 mg/kg single SC, SCID mice; read-out: Cmax in the brain
MEASUREMENT KIND: Cmax

>  <STRUCTURE NOTATION>
CCS(=O)(=O)N1CC(CC#N)(n2cc(-c3ncnc4[nH]ccc34)cn2)C1

>  <RESULT>
~40 ng/g

$$$$
